measurement.type: melting point

CC(=S)NC[C@H]1CN(c2ccc(-c3nc(Cn4ccnc4)cs3)c(F)c2)C(=O)O1 | 169 to 171 °C

Here is another compound to look at.
Ask: Which melting point value is on record for "CC(=S)NC[C@H]1CN(c2ccc(-n3cnc(Cn4cncn4)c3)c(F)c2)C(=O)O1" ?
Reply: 171 to 173 °C

###

# maps each entry to its melting point

CC(=O)NC[C@H]1CN(c2ccc(-n3cnc(Cn4ccnc4)c3)c(F)c2)C(=O)O1 (stereo in doubt) [Example 24] | 180 to 182 °C

Ask: Which melting point value is on record for CC(=O)NC[C@H]1CN(c2ccc(-c3csc(Cn4ccnc4)n3)c(F)c2)C(=O)O1 (stereo in doubt) [Example 16] ?
Reply: 154 to 156 °C

Ask: Which melting point value is on record for CC(=S)NC[C@H]1CN(c2ccc(-n3cnc(Cn4cccn4)c3)c(F)c2)C(=O)O1 (stereo in doubt) [Example 66] ?
Reply: 137 to 139 °C

Ask: Which melting point value is on record for CC(=O)NC[C@H]1CN(c2ccc(-c3nc(Cn4cccn4)cs3)c(F)c2)C(=O)O1 [Example 12] ?
Reply: 178 to 180 °C

Ask: Which melting point value is on record for CC(=S)NC[C@H]1CN(c2ccc(-n3cnc(Cn4ccnc4)c3)c(F)c2)C(=O)O1 (stereo in doubt) [Example 65] ?
Reply: 160 to 162 °C

Ask: Which melting point value is on record for CC(=O)NC[C@H]1CN(c2ccc(-c3nc(Cn4cncn4)co3)c(F)c2)C(=O)O1 [Example 4] ?
Reply: 160 to 162 °C

Ask: Which melting point value is on record for CC(=O)NC[C@H]1CN(c2ccc(-n3cc(Cn4cncn4)nn3)c(F)c2)C(=O)O1 [Example 30] ?
Reply: 170 to 171 °C

###

# maps each entry to its melting point

Worked examples follow.
CC(=O)NC[C@H]1CN(c2ccc(-n3cc(Cn4ccnc4)cn3)c(F)c2)C(=O)O1 | 171 to 172 °C
COC(=O)NC[C@H]1CN(c2ccc(-n3cc(Cn4cncn4)nn3)c(F)c2)C(=O)O1 | 170 °C
CC(=O)NC[C@H]1CN(c2ccc(-n3cnc(Cn4cncn4)c3)c(F)c2)C(=O)O1 (stereo in doubt) | 171 to 173 °C
CC(=O)NC[C@H]1CN(c2ccc(-c3nc(Cn4ccnc4)cs3)c(F)c2)C(=O)O1 | 192 to 194 °C

Ask: Which melting point value is on record for COC(=O)NC[C@H]1CN(c2ccc(-n3cnc(Cn4ccnc4)c3)c(F)c2)C(=O)O1 (stereo in doubt) ?
Reply: 78 to 80 °C

Ask: Which melting point value is on record for "COC(=S)NC[C@H]1CN(c2ccc(-c3nc(Cn4cccn4)cs3)c(F)c2)C(=O)O1" ?
Reply: 157 to 158 °C
